# Test system: Plasmodium falciparum 3D7 strain (CQ-sensitive)
# method summary: P. falciparum in vitro parasite growth inhibition
# Format: cell-based
# condition notes: Plasmodium falciparum, 3D7, read-out: 3D7 IC50
observation type: IC50 (nM)
Give the quantity in nM, number only.

Data request: GET /values?readout=IC50&item= CCN(CC)CCCC(C)Nc1ccnc2cc(Cl)ccc12 (stereo not shown) [CQ, Chloroquine diphosphate]
Data returned: 13.5
